Source of measurements: patent US20220096649A1

Parameter: pKd. Scope: all listed entries.
Biological target: SIRP-α human v1 (human) (UniProt P78324)
Sequence (P78324 31-149): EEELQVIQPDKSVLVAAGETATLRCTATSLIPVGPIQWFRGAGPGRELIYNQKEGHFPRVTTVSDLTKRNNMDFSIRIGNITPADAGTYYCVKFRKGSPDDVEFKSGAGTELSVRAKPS
Assay: SPR, antibody on GLC chip, SIRP as analyte
// pKd is dimensionless: -log10 of concentration (M)

Use these answered entries as a reference point.
Query string: Give its pKd value. Item: Anti-SIRP-α antibody 119, light chain wt, heavy chain wt (antibody, V domains shown) VH: EVQLLESGGGVVQPGGSLRLSCAASGFSFSNFAMTWVRQAPGEGLEWVSTIGSGDTYYADSVKGRFTISRDNSKNTLYLQMNSLRAEDTAVYYCAKDSTVSWSGDFFDYWGLGTLVTVSS VL: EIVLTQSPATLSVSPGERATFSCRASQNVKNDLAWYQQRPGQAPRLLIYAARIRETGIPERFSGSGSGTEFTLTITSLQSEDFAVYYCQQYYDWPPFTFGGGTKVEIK
Result string: 9.74

Query string: And the next one, Anti-SIRP-α antibody 135, light chain Mut, heavy chain wt (antibody, V domains shown) VH: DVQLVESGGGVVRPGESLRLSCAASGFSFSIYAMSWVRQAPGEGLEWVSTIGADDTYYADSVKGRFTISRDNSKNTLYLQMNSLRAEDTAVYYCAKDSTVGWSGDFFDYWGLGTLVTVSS VL: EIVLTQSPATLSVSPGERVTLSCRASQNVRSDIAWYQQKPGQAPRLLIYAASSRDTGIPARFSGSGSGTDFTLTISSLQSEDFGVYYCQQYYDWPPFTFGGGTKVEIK ?
Result string: 9.82

Query string: And the next one, Anti-SIRP-α antibody 136, light chain Mut_I2T, heavy chain Mut (antibody, V domains shown) VH: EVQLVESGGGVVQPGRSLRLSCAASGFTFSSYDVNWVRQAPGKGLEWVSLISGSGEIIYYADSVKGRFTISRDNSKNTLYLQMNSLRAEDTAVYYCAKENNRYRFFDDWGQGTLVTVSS VL: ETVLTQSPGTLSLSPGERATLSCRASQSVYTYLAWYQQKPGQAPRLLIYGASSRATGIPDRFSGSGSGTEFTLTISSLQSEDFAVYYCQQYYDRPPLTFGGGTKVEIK ?
Result string: 9.14

Next:
Query string: Give its pKd value. Item: Anti-SIRP-α antibody 135, light chain wt, heavy chain wt (antibody, V domains shown) VH: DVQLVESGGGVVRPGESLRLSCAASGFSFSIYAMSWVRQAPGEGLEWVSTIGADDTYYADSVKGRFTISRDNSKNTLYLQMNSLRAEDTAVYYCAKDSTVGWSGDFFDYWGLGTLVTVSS VL: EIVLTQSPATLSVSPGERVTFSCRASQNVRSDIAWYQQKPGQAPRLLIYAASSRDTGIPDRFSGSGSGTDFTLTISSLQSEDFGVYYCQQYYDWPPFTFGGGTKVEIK
Result string: 9.82

Query string: And the next one, Anti-SIRP-α antibody 135, light chain wt, heavy chain Mut_V34M (antibody, V domains shown) VH: EVQLVESGGGVVQPGGSLRLSCAASGFSFSIYAMSWVRQAPGKGLEWVSTIGADDTYYADSVKGRFTISRDNSKNTLYLQMNSLRAEDTAVYYCAKDSTVGWSGDFFDYWGQGTLVTVSS VL: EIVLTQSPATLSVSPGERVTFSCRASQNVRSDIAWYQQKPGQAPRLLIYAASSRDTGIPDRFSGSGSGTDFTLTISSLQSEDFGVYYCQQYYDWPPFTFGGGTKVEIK ?
Result string: 9.82
